Test: The drug is tested on Z-028 corresponding to mouse gut metagenome with ENA study accession number: PRJEB37062 and ENA sample accession number: ERS12561827 for biotransformation under anaerobic condition. The drug concentrations were measured over 9 timepoints collected between 0 and 24 hours of incubation by liquid-chromatography-coupled mass spectrometry (LC–MS); also: call rule not given here
Conditions: 2 µM
QUANTITY_KIND: Bacterial Biotransformation

Known Bacterial Biotransformation results, listed for orientation:
Query: Consider the molecule CC(C)(C)NCC(O)c1cc(Cl)c(N)c(Cl)c1 (stereo not drawn) [CLENBUTEROL] and give its measured Bacterial Biotransformation.
Response: Compound NOT metabolized

Query: Consider the molecule CCOc1cc(CC(=O)N[C@@H](CC(C)C)c2ccccc2N2CCCCC2)ccc1C(=O)O [REPAGLINIDE] and give its measured Bacterial Biotransformation.
Response: Compound metabolized

Query: Consider the molecule CC(C)(C)NC(=O)[C@H]1CC[C@H]2[C@@H]3CC[C@H]4NC(=O)C=C[C@]4(C)[C@H]3CC[C@]12C [FINASTERIDE] and give its measured Bacterial Biotransformation.
Response: Compound metabolized

Query: Consider the molecule Br.COc1ccc2c(c1)[C@]13CCCC[C@@H]1[C@H](C2)N(C)CC3.O [DEXTROMETHORPHAN HYDROBROMIDE] and give its measured Bacterial Biotransformation.
Response: Compound NOT metabolized

Query: Consider the molecule COC(=O)C(c1ccccc1)C1CCCCN1 (stereo not drawn) [METHYLPHENIDATE] and give its measured Bacterial Biotransformation.
Response: Compound NOT metabolized

Query: Consider the molecule O=C(CCCN1CCC2(CC1)C(=O)NCN2c1ccccc1)c1ccc(F)cc1 [SPIPERONE] and give its measured Bacterial Biotransformation.
Response: Compound NOT metabolized

Query: Consider the molecule COc1cc2nc(N3CCN(C(=O)C4CCCO4)CC3)nc(N)c2cc1OC (stereo not drawn) [TERAZOSIN] and give its measured Bacterial Biotransformation.
Response: Compound NOT metabolized

Query: Consider the molecule Cc1ccc(NC(=O)c2ccc(CN3CCN(C)CC3)cc2)cc1Nc1nccc(-c2cccnc2)n1 [IMATINIB] and give its measured Bacterial Biotransformation.
Response: Compound NOT metabolized

New cases:
Query: Consider the molecule CC(=O)OCC(CCn1cnc2cnc(N)nc21)COC(C)=O [FAMCICLOVIR] and give its measured Bacterial Biotransformation.
Response: Compound metabolized

Query: Consider the molecule CN(C)CCC=C1c2ccccc2COc2ccccc21 [DOXEPIN] and give its measured Bacterial Biotransformation.
Response: Compound NOT metabolized

Query: Consider the molecule C#C[C@]1(OC(C)=O)CC[C@H]2[C@@H]3CCC4=CC(=O)CC[C@@H]4[C@H]3CC[C@@]21C [NORETHINDRONE ACETATE] and give its measured Bacterial Biotransformation.
Response: Compound metabolized

Query: Consider the molecule CNNCc1ccc(C(=O)NC(C)C)cc1 [PROCARBAZINE] and give its measured Bacterial Biotransformation.
Response: Compound metabolized

Query: Consider the molecule CCCN(CCC)CCc1cccc2c1CC(=O)N2 [ROPINIROLE] and give its measured Bacterial Biotransformation.
Response: Compound NOT metabolized

Query: Consider the molecule CC(=O)O[C@H]1C(=O)[C@@]2(C)[C@H]([C@H](OC(=O)c3ccccc3)[C@]3(O)C[C@H](OC(=O)[C@H](O)[C@@H](NC(=O)c4ccccc4)c4ccccc4)C(C)=C1C3(C)C)[C@]1(OC(C)=O)CO[C@@H]1C[C@@H]2O [PACLITAXEL] and give its measured Bacterial Biotransformation.
Response: Compound metabolized

Query: Consider the molecule O=C1CN2Cc3c(ccc(Cl)c3Cl)N=C2N1 [ANAGRELIDE] and give its measured Bacterial Biotransformation.
Response: Compound NOT metabolized

Query: Consider the molecule CCN(CC)CCNC(=O)c1ccc(NC(C)=O)cc1 [ACECAINIDE] and give its measured Bacterial Biotransformation.
Response: Compound NOT metabolized

Query: Consider the molecule CN(CCOc1ccc(CC2SC(=O)NC2=O)cc1)c1ccccn1.O=C(O)/C=C\C(=O)O (stereo not drawn) [ROSIGLITAZONE MALEATE] and give its measured Bacterial Biotransformation.
Response: Compound NOT metabolized

Query: Consider the molecule COc1ccc([C@@H]2Sc3ccccc3N(CCN(C)C)C(=O)[C@@H]2OC(C)=O)cc1 [DILTIAZEM] and give its measured Bacterial Biotransformation.
Response: Compound metabolized

Values from ChEMBL document CHEMBL5724914
